- assay-explanation: AUC in ICR mouse at 5 mg/kg, po measured upto 24 hrs by LCMS analysis
- Assay type: ADME, organism-based
- Parameters: dose 5 mg/kg, time < 24 hr, route oral
- assay-conditions: in vivo
reported-endpoint: AUC at 24 h (µM·h)

[
  {
    "molecule": "C[C@H](Nc1ncc(F)c(N2C(=O)OC[C@@H]2[C@H](C)F)n1)c1ncn2c1CCc1cc(C(F)(F)F)ccc1-2",
    "quantitative-readout": 12.7
  }
]

[I] C[C@H](Nc1nccc(N2C(=O)OC[C@@H]2[C@H](C)F)n1)c1ncn2c1CCc1cc(C(F)(F)F)ccc1-2
[II] CC(C)[C@H]1COC(=O)N1c1ccnc(N[C@@H](C)c2ncn3c2CCc2cc(C(F)(F)F)ccc2-3)n1
Prompt: Hey, between I and II which has a smaller measured AUC at 24 h? Selection: enter the item's label.
Response: II
(II: 1.65 µM·h, I: 11 µM·h)

[I] N#Cc1ccnc(N2C(=O)CC[C@H]2C(=O)N(c2cncc(F)c2)[C@H](C(=O)NC2CC(F)(F)C2)c2ccccc2Cl)c1 [IVOSIDENIB]
[II] C[C@H](Nc1nccc(N2C(=O)OC[C@@H]2[C@H](C)F)n1)c1ncn2c1COc1cc(Cl)ccc1-2
Prompt: Hey, between I and II which has a smaller measured AUC at 24 h? Selection: enter the item's label.
Response: II

[1] C[C@H](Nc1nccc(N2C(=O)OC[C@@H]2[C@H](C)F)n1)c1ncn2c1CCc1cc(Cl)ccc1-2
[2] C[C@H](Nc1nccc(N2C(=O)OC[C@@H]2[C@H](C)F)n1)c1ncn2c1COc1cc(C(F)(F)F)ccc1-2
Prompt: Hey, between 1 and 2 which has a smaller measured AUC at 24 h? Selection: enter the item's label.
Response: 1

* * *

- test-target: Isocitrate dehydrogenase [NADP] cytoplasmic (Homo sapiens, UniProt O75874, R132C)
- Sequence (O75874 2-414 R132C limits assumed): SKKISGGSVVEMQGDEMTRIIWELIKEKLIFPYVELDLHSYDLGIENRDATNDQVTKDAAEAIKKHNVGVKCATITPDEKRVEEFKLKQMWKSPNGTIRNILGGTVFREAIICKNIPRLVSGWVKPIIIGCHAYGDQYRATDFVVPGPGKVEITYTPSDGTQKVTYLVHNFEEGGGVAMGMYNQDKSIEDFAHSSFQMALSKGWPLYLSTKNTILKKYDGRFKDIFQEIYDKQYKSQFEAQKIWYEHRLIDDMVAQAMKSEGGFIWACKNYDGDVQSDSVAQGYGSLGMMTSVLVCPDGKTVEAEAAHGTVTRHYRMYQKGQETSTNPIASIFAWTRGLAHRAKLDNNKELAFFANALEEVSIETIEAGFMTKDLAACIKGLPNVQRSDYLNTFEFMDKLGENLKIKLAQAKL
- assay-explanation: Inhibition of IDH1 R132C mutant in human HT1080 cells assessed as reduction in 2-HG production incubated with compound for 48 hrs by D2HG assay kit based fluorescence assay
- Format: cell-based
pIC50: −log10 of the molar value.
reported-endpoint: pIC50

[
  {
    "line-notation": "CC(C)[C@H]1COC(=O)N1c1ccnc(N[C@@H](C)c2ncn3c2CCc2cc(C(F)(F)F)ccc2-3)n1",
    "test-target": "Isocitrate dehydrogenase [NADP] cytoplasmic (Homo sapiens, UniProt O75874, R132C)",
    "reported-endpoint": "pIC50",
    "quantitative-readout": 7.90
  },
  {
    "line-notation": "C[C@H](Nc1nccc(N2C(=O)OC[C@@H]2[C@H](C)F)n1)c1ncn2c1COc1cc(Cl)ccc1-2",
    "test-target": "Isocitrate dehydrogenase [NADP] cytoplasmic (Homo sapiens, UniProt O75874, R132C)",
    "reported-endpoint": "pIC50",
    "quantitative-readout": 7.22
  },
  {
    "line-notation": "C[C@H](Nc1nccc(N2C(=O)OC[C@@H]2[C@H](C)F)n1)c1ncn2c1CCc1cc(C(F)(F)F)ccc1-2",
    "test-target": "Isocitrate dehydrogenase [NADP] cytoplasmic (Homo sapiens, UniProt O75874, R132C)",
    "reported-endpoint": "pIC50",
    "quantitative-readout": 7.80
  }
]

[1] C[C@H](Nc1nccc(N2C(=O)OC[C@@H]2[C@H](C)F)n1)c1ncn2c1CCc1cc(Cl)ccc1-2
[2] C[C@H](Nc1nccc(N2C(=O)OC[C@@H]2[C@H](C)F)n1)c1ncn2c1COc1cc(C(F)(F)F)ccc1-2
Prompt: Of the two listed items, which has the higher pIC50? First: 1 Second: 2 Selection: enter the item's label.
Response: 2
(2: 7.92, 1: 7.27)
